target: D(1A) dopamine receptor (Homo sapiens, UniProt P21728); assay: Displacement of [3H]SCH23390 from human dopamine D1 receptor expressed in HEK293T cells by radioligand binding assay relative to control; assay type: cell-based; parameters: concentration or dose not given beside the values; details: concentration not given here
Sequence (P21728 whole entry): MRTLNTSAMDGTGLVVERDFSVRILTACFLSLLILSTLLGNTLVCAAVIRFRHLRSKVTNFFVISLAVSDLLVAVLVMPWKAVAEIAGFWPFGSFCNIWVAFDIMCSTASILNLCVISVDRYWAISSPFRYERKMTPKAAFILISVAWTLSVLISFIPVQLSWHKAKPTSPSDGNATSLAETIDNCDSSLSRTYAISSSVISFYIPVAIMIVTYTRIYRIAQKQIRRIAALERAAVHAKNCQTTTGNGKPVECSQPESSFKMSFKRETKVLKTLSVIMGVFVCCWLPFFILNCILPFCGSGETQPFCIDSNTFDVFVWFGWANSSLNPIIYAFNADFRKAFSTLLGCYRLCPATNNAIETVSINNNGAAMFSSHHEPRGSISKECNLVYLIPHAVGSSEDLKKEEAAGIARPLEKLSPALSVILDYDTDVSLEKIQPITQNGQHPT
Overview of reported inhibition across a group of compounds:
Readout Type: inhibition (%)

compound_smiles=OC1(c2ccc(Cl)c(C(F)(F)F)c2)CCN(CCCCN(c2ccc(F)cc2)c2ccc(F)cc2)CC1 readout_type=inhibition unit_symbol=% quantitative_result=77.9
compound_smiles=OC1(c2ccc(Cl)c(C(F)(F)F)c2)CCN(CCCN(c2ccc(F)cc2)c2ccc(F)cc2)CC1 readout_type=inhibition unit_symbol=% quantitative_result=96.8
compound_smiles=OC1(c2ccc(Cl)c(C(F)(F)F)c2)CCN(CCCC(c2ccc(F)cc2)c2ccc(F)cc2)CC1 readout_type=inhibition unit_symbol=% quantitative_result=96.5
compound_smiles=OC1(c2ccc(Cl)c(C(F)(F)F)c2)CCN(CCCCC(c2ccc(F)cc2)c2ccc(F)cc2)CC1 readout_type=inhibition unit_symbol=% quantitative_result=92.6
compound_smiles=COc1ccc(N(CCCCN2CCC(O)(c3ccc(Cl)c(C(F)(F)F)c3)CC2)c2ccc(OC)cc2)cc1 readout_type=inhibition unit_symbol=% quantitative_result=56.6
compound_smiles=OC1(c2ccc(Cl)c(C(F)(F)F)c2)CCN(CCCC(c2ccccc2)c2ccccc2)CC1 readout_type=inhibition unit_symbol=% quantitative_result=97.2

----------
target: D(1B) dopamine receptor (Homo sapiens, UniProt P21918); experiment: Displacement of [3H]SCH23390 from human dopamine D5 receptor expressed in HEK293T cells by radioligand binding assay relative to control; assay type: cell-based; parameters: concentration or dose not given beside the values; conditions: concentration not given here
Sequence (P21918 whole entry): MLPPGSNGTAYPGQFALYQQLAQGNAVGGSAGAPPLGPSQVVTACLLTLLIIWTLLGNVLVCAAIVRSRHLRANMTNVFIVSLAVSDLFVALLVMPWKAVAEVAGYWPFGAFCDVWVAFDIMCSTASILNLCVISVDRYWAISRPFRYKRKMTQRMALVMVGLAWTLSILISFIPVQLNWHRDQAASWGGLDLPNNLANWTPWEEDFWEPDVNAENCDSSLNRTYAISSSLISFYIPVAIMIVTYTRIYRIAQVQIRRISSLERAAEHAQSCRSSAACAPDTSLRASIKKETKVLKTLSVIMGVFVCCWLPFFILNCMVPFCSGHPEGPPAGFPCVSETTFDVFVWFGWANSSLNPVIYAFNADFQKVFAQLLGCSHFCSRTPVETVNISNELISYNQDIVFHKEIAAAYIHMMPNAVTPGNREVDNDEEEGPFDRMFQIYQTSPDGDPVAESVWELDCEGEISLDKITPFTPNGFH
Readout Type: inhibition (%)

compound_smiles=OC1(c2ccc(Cl)c(C(F)(F)F)c2)CCN(CCCCN(c2ccc(F)cc2)c2ccc(F)cc2)CC1 study_target="D(1B) dopamine receptor (Homo sapiens, UniProt P21918)" readout_type=inhibition quantitative_result=84.6
compound_smiles=OC1(c2ccc(Cl)c(C(F)(F)F)c2)CCN(CCCC(c2ccccc2)c2ccccc2)CC1 study_target="D(1B) dopamine receptor (Homo sapiens, UniProt P21918)" readout_type=inhibition quantitative_result=89.4
compound_smiles=OC1(c2ccc(Cl)c(C(F)(F)F)c2)CCN(CCCN(c2ccc(F)cc2)c2ccc(F)cc2)CC1 study_target="D(1B) dopamine receptor (Homo sapiens, UniProt P21918)" readout_type=inhibition quantitative_result=100
compound_smiles=OC1(c2ccc(Cl)c(C(F)(F)F)c2)CCN(CCCC(c2ccc(F)cc2)c2ccc(F)cc2)CC1 study_target="D(1B) dopamine receptor (Homo sapiens, UniProt P21918)" readout_type=inhibition quantitative_result=82.9
compound_smiles=COc1ccc(N(CCCCN2CCC(O)(c3ccc(Cl)c(C(F)(F)F)c3)CC2)c2ccc(OC)cc2)cc1 study_target="D(1B) dopamine receptor (Homo sapiens, UniProt P21918)" readout_type=inhibition quantitative_result=83.5
compound_smiles=OC1(c2ccc(Cl)c(C(F)(F)F)c2)CCN(CCCCC(c2ccc(F)cc2)c2ccc(F)cc2)CC1 study_target="D(1B) dopamine receptor (Homo sapiens, UniProt P21918)" readout_type=inhibition quantitative_result=88.2

----------
target: D(3) dopamine receptor (Homo sapiens, UniProt P35462); assay: Displacement of [3H]N-methylspiperone from human dopamine D3 receptor expressed in HEK293T cells by radioligand binding assay relative to control; assay type: cell-based; design: concentration or dose not given beside the values; conditions: concentration not given here
Sequence (P35462 whole entry): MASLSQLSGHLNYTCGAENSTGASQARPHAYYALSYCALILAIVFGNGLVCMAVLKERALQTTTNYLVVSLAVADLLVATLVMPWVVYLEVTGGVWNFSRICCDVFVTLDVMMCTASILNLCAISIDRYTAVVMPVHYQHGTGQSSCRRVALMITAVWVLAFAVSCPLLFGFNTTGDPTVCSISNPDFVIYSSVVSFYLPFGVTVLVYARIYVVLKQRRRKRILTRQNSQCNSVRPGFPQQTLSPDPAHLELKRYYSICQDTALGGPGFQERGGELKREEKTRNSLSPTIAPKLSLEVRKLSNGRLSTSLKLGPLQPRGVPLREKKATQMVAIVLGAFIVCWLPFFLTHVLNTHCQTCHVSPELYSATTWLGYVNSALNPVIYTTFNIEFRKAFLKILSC
Readout Type: inhibition (%)

compound_smiles=OC1(c2ccc(Cl)c(C(F)(F)F)c2)CCN(CCCC=C(c2ccc(F)cc2)c2ccc(F)cc2)CC1 readout_type=inhibition quantitative_result=87.1
compound_smiles=OC1(c2ccc(Cl)c(C(F)(F)F)c2)CCN(CCCC(c2ccc(F)cc2)c2ccc(F)cc2)CC1 readout_type=inhibition quantitative_result=98.2
compound_smiles=OC1(c2ccc(Cl)c(C(F)(F)F)c2)CCN(CCCCCc2ccc(F)cc2)CC1 readout_type=inhibition quantitative_result=77.8
compound_smiles=COc1ccc(N(CCCCN2CCC(O)(c3ccc(Cl)c(C(F)(F)F)c3)CC2)c2ccc(OC)cc2)cc1 readout_type=inhibition quantitative_result=65.1

----------
Target: UniProt P21917
Sequence (whole entry): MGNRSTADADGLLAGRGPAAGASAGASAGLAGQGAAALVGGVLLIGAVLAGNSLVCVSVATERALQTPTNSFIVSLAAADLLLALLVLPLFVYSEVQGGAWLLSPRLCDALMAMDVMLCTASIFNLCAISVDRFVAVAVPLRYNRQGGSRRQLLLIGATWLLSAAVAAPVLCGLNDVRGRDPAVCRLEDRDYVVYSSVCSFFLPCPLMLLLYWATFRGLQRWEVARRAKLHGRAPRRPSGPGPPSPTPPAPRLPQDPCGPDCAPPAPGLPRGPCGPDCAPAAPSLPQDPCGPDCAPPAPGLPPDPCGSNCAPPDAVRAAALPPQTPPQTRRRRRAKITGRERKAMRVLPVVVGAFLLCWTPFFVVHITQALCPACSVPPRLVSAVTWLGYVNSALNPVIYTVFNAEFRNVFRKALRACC
Assay: Displacement of [3H]N-methylspiperone from human dopamine D4 receptor by radioligand binding assay relative to control
Set-up: concentration or dose not given beside the values
Details: concentration not given here
Readout Type: inhibition (%)

compound_smiles=OC1(c2ccc(Cl)c(C(F)(F)F)c2)CCN(CCCCN(c2ccc(F)cc2)c2ccc(F)cc2)CC1 study_target="UniProt P21917" unit_symbol=% quantitative_result=86.1
compound_smiles=OC1(c2ccc(Cl)c(C(F)(F)F)c2)CCN(CCCN(c2ccc(F)cc2)c2ccc(F)cc2)CC1 study_target="UniProt P21917" unit_symbol=% quantitative_result=76.5
compound_smiles=OC1(c2ccc(Cl)c(C(F)(F)F)c2)CCN(CCCC(c2ccccc2)c2ccccc2)CC1 study_target="UniProt P21917" unit_symbol=% quantitative_result=98.9
compound_smiles=OC1(c2ccc(Cl)c(C(F)(F)F)c2)CCN(CCCC(c2ccc(F)cc2)c2ccc(F)cc2)CC1 study_target="UniProt P21917" unit_symbol=% quantitative_result=77.6
compound_smiles=OC1(c2ccc(Cl)c(C(F)(F)F)c2)CCN(CCCCCc2ccc(F)cc2)CC1 study_target="UniProt P21917" unit_symbol=% quantitative_result=89.2
compound_smiles=OC1(c2ccc(Cl)c(C(F)(F)F)c2)CCN(CCCC=C(c2ccc(F)cc2)c2ccc(F)cc2)CC1 study_target="UniProt P21917" unit_symbol=% quantitative_result=87.8
compound_smiles=COc1ccc(N(CCCCN2CCC(O)(c3ccc(Cl)c(C(F)(F)F)c3)CC2)c2ccc(OC)cc2)cc1 study_target="UniProt P21917" unit_symbol=% quantitative_result=73
compound_smiles=OC1(c2ccc(Cl)c(C(F)(F)F)c2)CCN(CCCCC(c2ccc(F)cc2)c2ccc(F)cc2)CC1 study_target="UniProt P21917" unit_symbol=% quantitative_result=96.9

----------
Target: Alpha-2B adrenergic receptor (Homo sapiens)
Sequence (P18089 whole entry): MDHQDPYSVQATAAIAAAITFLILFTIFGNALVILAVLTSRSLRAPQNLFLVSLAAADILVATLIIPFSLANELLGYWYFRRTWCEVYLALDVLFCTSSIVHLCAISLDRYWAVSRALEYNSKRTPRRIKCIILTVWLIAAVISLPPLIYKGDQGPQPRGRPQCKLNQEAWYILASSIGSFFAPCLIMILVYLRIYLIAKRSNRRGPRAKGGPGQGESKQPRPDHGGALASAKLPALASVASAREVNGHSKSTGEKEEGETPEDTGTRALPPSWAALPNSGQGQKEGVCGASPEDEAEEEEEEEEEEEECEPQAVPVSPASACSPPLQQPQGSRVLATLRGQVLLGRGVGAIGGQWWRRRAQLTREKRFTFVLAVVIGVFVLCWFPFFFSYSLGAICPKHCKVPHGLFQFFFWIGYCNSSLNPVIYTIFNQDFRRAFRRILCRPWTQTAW
pKi: −log10 of the molar value.
Readout Type: pKi

molecule="OC1(c2ccc(Cl)c(C(F)(F)F)c2)CCN(CCCC(c2ccc(F)cc2)c2ccc(F)cc2)CC1 [PENFLURIDOL]" readout_type=pKi quantitative_result=6.40

----------
molecular target: Histamine H1 receptor (Homo sapiens, UniProt P35367); experiment: Displacement of [3H]Pyrilamine from human H1 receptor expressed in HEK cells by radioligand binding assay relative to control; format: cell-based; parameters: concentration or dose not given beside the values; settings: concentration not given here
Sequence (P35367 whole entry): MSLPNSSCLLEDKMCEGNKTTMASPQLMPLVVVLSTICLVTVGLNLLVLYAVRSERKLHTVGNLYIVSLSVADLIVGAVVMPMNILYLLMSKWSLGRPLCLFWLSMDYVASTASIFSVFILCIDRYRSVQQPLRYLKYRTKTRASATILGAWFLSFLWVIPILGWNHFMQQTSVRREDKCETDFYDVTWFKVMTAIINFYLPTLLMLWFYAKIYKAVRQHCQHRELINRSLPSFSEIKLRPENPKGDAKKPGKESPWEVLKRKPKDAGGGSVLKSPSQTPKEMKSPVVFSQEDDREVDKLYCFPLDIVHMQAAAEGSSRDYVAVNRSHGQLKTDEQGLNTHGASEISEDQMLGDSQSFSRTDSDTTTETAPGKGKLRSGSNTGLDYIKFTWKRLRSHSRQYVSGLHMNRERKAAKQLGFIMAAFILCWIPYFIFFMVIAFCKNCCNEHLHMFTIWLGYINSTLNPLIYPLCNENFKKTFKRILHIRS
// label = Criterion met if inhibition is not less than 70%, otherwise Criterion not met

compound_smiles=OC1(c2ccc(Cl)c(C(F)(F)F)c2)CCN(CCCN(c2ccc(F)cc2)c2ccc(F)cc2)CC1 classification="Criterion met"
compound_smiles=OC1(c2ccc(Cl)c(C(F)(F)F)c2)CCN(CCCC(c2ccc(F)cc2)c2ccc(F)cc2)CC1 classification="Criterion met"
compound_smiles=OC1(c2ccc(Cl)c(C(F)(F)F)c2)CCN(CCCC=C(c2ccc(F)cc2)c2ccc(F)cc2)CC1 classification="Criterion not met"
